Test system: HCT-116 colon
Assay Remarks: NCI tumour cell line growth inhibition, 48 h; in the data active means GI50 below about 0.43 µM; inactive means the rest
Classes used: TRUE for active, FALSE for inactive

{"Compound": "C=C(C)CCC(C)N1CCC(N2CCC(C(=O)NCCc3ccccc3)CC2)CC1 (stereo unspecified)", "Assigned Class": "FALSE"}
{"Compound": "O=c1oc2ccc(Cl)cc2c(=O)n1-c1ccc(I)cc1F", "Assigned Class": "TRUE"}
{"Compound": "CC[CH2][Pb]([CH2]CC)([CH2]CC)[NH]S(=O)(=O)c1ccc(C)cc1", "Assigned Class": "TRUE"}
{"Compound": "CC(C)OC(=O)c1ccc2[nH]c(O)c(C(=Nc3ccc(N(C)C(=O)CN4CCN(C)CC4)cc3)c3ccccc3)c2c1", "Assigned Class": "TRUE"}
{"Compound": "C/C1=C\\CC[C@@](C)(O)[C@@H]2CC3[C@@H](OC(=O)C34CC4)[C@@H](O2)[C@H](C)CCC1 (stereo partly specified)", "Assigned Class": "FALSE"}
{"Compound": "CCOC(=O)N1CCN(S(=O)(=O)c2oc(-c3ccc(Cl)cc3)nc2C#N)CC1", "Assigned Class": "FALSE"}
{"Compound": "CCOC(=O)c1c(C)n(Cc2ccc(Cl)cc2Cl)c2c1cc1oc(=O)c(=O)n3c(Cc4ccccc4)nc2c13", "Assigned Class": "FALSE"}
{"Compound": "Nc1nc(Nc2cccc(F)c2)nc2ccccc12", "Assigned Class": "FALSE"}
{"Compound": "Fc1ccc(Nc2nccc(-c3c(-c4ccc(C(F)(F)F)cc4)nn4ncccc34)n2)cc1F", "Assigned Class": "FALSE"}
{"Compound": "Clc1ccc2nc(Oc3ccccc3)cnc2c1", "Assigned Class": "FALSE"}
{"Compound": "O=C(NN1C(=O)CSC1c1ccc(Cl)cc1)c1[nH]c2ccc(F)cc2c1-c1ccccc1 (stereo unspecified)", "Assigned Class": "FALSE"}

====

Item-by-item account of GI50
Test system: A549 NSCLC
Assay Remarks: NCI tumour cell line growth inhibition, 48 h
Quantity Name: GI50

{"Compound": "CCCCCCCCCCCCC(=O)[O-].CCCCCCCCCCCCC(=O)[O-].CCCCCCCCCCCCC(=O)[O-].CCCCCCCCCCCCC(=O)[O-].[Mo+2].[Mo+2]", "Observed Value": "14900 nM"}
{"Compound": "CCCCC[C@H]1C/C=C2/C(=O)C(Cl)=C[C@@H]2C/C=C\\CCCC(=O)O[C@@H](CCCCC)C/C=C2/C(=O)C(Cl)=C[C@@H]2C/C=C\\CCCC(=O)O1", "Observed Value": "426 nM"}
{"Compound": "CCOC(=O)c1c(C)n(Cc2ccc(Cl)cc2Cl)c2c1cc1oc(=O)c(=O)n3c(Cc4ccccc4)nc2c13", "Observed Value": "3640 nM"}
{"Compound": "CC(=O)OC1C2(CC3N4C(=O)C5(CO)SSC4(CC31O)C(=O)N5C)OC(C)C(C)(C)C2=O (centres undefined)", "Observed Value": "59.2 nM"}

====

Test system: OVCAR-5 ovarian
Assay Remarks: NCI tumour cell line growth inhibition, 48 h

{"Compound": "C=CC12CN(C)C3C4COC(CC41)C1(C(=O)Nc4ccccc41)C32 (stereo not given)", "TGI": "> 200 µM"}
{"Compound": "C=C(N=[N+]=[N-])c1cn(C2CC(O)C(CO)O2)c(=O)[nH]c1=O (stereo not given)", "TGI": "> 100 µM"}
{"Compound": "CCO[C@@H]1C2C=CC(C2)[C@H]1[N+](=O)[O-] (stereo not given in full)", "TGI": "> 100 µM"}
{"Compound": "CC(C)CNC(=O)Cn1c2c(c3ccccc31)CCCC2", "TGI": "> 100 µM"}
{"Compound": "CC1CC/C(=C\\c2ccc(N(C)C)cc2)C(=O)/C1=C/c1ccc(N(C)C)cc1 (stereo not given)", "TGI": "> 100 µM"}
{"Compound": "CC1=CC(=O)C(C(C)=Nc2ccccc2Cl)C(=O)O1 (stereo not given)", "TGI": "> 100 µM"}
{"Compound": "C[C@H](CS(C)(=O)=O)Nc1ncc2cc(Oc3ccc(F)cc3F)c(=O)n(C)c2n1", "TGI": "> 25 µM"}
{"Compound": "Cn1c(COC(=O)NC2CCCCC2)c(COC(=O)NC2CCCCC2)c2ccc3cc(Cl)c(Cl)cc3c21", "TGI": "34.5 µM"}
{"Compound": "CCCCCc1c(C)[nH]c(/C=C2\\N=C(c3ccc[nH]3)C=C2Oc2ccc(Cl)cc2)c1C", "TGI": "4.26 µM"}
{"Compound": "CC(=O)OC1C2(CC3N4C(=O)C5(CO)SSC4(CC31O)C(=O)N5C)OC(C)C(C)(C)C2=O (stereo not given)", "TGI": "0.208 µM"}
